target: Glutamate receptor ionotropic, kainate 2 (Rattus norvegicus, UniProt P42260); test: Displacement of [3H]-KA from recombinant homomeric rat GluK2 (V,C,R)a receptor expressed in baculovirus infected Sf9 insect cell membranes by scintillation counting method
Sequence (P42260 whole entry): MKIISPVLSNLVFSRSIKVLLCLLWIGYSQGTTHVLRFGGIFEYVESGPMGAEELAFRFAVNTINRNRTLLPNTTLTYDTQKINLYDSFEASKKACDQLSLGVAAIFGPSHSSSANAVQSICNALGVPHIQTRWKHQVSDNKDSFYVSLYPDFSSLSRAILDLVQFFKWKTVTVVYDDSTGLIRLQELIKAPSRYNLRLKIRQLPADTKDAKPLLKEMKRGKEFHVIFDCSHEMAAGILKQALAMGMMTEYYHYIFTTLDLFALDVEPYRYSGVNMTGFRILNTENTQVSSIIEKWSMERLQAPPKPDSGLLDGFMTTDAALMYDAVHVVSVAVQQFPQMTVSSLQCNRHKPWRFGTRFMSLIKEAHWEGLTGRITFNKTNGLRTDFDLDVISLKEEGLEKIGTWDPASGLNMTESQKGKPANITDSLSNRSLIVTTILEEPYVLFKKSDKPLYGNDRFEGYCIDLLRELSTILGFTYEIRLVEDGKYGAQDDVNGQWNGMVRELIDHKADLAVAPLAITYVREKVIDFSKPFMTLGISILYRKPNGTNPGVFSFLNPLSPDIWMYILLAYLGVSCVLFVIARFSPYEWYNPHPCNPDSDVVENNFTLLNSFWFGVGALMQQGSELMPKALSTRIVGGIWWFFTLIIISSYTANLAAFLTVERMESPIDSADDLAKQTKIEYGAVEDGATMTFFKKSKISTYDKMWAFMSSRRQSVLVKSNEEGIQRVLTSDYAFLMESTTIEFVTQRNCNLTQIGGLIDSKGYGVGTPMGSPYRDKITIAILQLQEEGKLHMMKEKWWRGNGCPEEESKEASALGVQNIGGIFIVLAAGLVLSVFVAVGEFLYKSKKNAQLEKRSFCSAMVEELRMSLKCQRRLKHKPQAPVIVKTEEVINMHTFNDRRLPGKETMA
Listed next: entries and their corresponding Ki.

- Smiles code: "N#Cc1cccc([C@H]2CCN[C@@H]2C(=O)O)c1"
  Ki: "> 1000 µM"

INPUT: What does the record list as Ki for `O=C(O)c1cc([C@H]2CCN[C@@H]2C(=O)O)ccc1Br` ?
OUTPUT: > 100 µM

###

target: Glutamate receptor ionotropic, kainate 3 (Rattus norvegicus, UniProt P42264); assay: Displacement of [3H]-KA from recombinant homomeric rat GluK3a receptor expressed in baculovirus infected Sf9 insect cell membranes by scintillation counting method
Sequence (P42264 whole entry): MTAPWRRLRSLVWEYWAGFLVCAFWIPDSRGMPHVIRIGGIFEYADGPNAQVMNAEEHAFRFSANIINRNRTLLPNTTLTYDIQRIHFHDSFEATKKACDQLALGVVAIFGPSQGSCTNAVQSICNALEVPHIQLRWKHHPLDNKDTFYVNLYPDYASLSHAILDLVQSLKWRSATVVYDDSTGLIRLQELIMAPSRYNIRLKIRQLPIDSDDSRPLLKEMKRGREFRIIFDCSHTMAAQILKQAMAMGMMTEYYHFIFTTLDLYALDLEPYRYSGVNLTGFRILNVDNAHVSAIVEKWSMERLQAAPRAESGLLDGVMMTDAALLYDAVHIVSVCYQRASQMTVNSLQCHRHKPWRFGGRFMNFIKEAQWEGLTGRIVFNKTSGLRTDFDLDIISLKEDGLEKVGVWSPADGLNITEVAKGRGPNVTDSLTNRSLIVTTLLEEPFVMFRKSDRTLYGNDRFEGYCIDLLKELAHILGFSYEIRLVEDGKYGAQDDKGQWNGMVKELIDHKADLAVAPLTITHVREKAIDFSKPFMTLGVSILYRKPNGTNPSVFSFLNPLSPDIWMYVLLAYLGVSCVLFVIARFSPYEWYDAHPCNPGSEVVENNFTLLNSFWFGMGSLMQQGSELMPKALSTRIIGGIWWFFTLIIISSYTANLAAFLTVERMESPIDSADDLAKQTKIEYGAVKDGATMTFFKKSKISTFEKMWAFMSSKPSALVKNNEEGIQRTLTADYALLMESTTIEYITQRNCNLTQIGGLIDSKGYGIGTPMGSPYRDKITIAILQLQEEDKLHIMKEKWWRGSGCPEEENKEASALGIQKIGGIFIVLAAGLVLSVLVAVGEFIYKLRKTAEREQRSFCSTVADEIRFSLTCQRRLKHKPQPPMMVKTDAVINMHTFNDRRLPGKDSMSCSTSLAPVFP
pKi: −log10 of the molar value.
Result type: pKi

Solved cases (8 shown):
- Smiles code: "Cl.O=C(O)c1cc([C@H]2CCN[C@@H]2C(=O)O)ccc1Cl"
  Target entity: "Glutamate receptor ionotropic, kainate 3 (Rattus norvegicus, UniProt P42264)"
  pKi: 3.88
- Smiles code: "O=C(O)[C@H]1NCC[C@@H]1c1cccc(Cl)c1"
  Target entity: "Glutamate receptor ionotropic, kainate 3 (Rattus norvegicus, UniProt P42264)"
  pKi: "< 4.00"
- Smiles code: "O=C(O)[C@H]1NCC[C@@H]1c1cccc(B(O)O)c1"
  Target entity: "Glutamate receptor ionotropic, kainate 3 (Rattus norvegicus, UniProt P42264)"
  pKi: "< 4.00"
- Smiles code: "NC(=O)c1cccc([C@H]2CCN[C@@H]2C(=O)O)c1"
  Target entity: "Glutamate receptor ionotropic, kainate 3 (Rattus norvegicus, UniProt P42264)"
  pKi: "< 4.00"
- Smiles code: "O=C(O)[C@H]1NCC[C@@H]1c1cccc(C(F)(F)F)c1"
  Target entity: "Glutamate receptor ionotropic, kainate 3 (Rattus norvegicus, UniProt P42264)"
  pKi: "< 4.00"
- Smiles code: "O=C(O)c1cc([C@H]2CCN[C@@H]2C(=O)O)ccc1Br"
  Target entity: "Glutamate receptor ionotropic, kainate 3 (Rattus norvegicus, UniProt P42264)"
  pKi: "< 4.00"
- Smiles code: "Cc1ccc([C@H]2CCN[C@@H]2C(=O)O)cc1C(=O)O"
  Target entity: "Glutamate receptor ionotropic, kainate 3 (Rattus norvegicus, UniProt P42264)"
  pKi: "< 4.00"
- Smiles code: "Cl.O=C(O)c1cc([C@H]2CCN[C@@H]2C(=O)O)ccc1F"
  Target entity: "Glutamate receptor ionotropic, kainate 3 (Rattus norvegicus, UniProt P42264)"
  pKi: 4.96

With those in mind, consider the next molecule.
INPUT: // query pKi value for entry `N#Cc1cccc([C@H]2CCN[C@@H]2C(=O)O)c1`
OUTPUT: < 3.00

###

assay: Displacement of [3H]-AMPA from AMPA receptor in Sprague-Dawley rat brain synaptosomes after 30 mins by scintillation counting method; format: subcellular
Here the recorded IC50 is given for each entry.

Examples from the recorded data:
- Smiles code: "O=C(O)[C@H]1NCC[C@@H]1c1cccc(C(F)(F)F)c1"
  IC50: "> 100 µM"
- Smiles code: "Cl.O=C(O)c1cc([C@H]2CCN[C@@H]2C(=O)O)ccc1Cl"
  IC50: "> 100 µM"
- Smiles code: "O=C(O)[C@H]1NCC[C@@H]1c1cccc(Cl)c1"
  IC50: "> 100 µM"
- Smiles code: "NC(=O)c1cccc([C@H]2CCN[C@@H]2C(=O)O)c1"
  IC50: "> 100 µM"
- Smiles code: "N#Cc1cccc([C@H]2CCN[C@@H]2C(=O)O)c1"
  IC50: "> 100 µM"

INPUT: Request the reported IC50 associated with `Cc1ccc([C@H]2CCN[C@@H]2C(=O)O)cc1C(=O)O`
OUTPUT: > 100 µM
